# reported PBM E-score; entries follow
- target_desc: Cst6 (UniProt P40535)
- Sequence (P40535 whole entry): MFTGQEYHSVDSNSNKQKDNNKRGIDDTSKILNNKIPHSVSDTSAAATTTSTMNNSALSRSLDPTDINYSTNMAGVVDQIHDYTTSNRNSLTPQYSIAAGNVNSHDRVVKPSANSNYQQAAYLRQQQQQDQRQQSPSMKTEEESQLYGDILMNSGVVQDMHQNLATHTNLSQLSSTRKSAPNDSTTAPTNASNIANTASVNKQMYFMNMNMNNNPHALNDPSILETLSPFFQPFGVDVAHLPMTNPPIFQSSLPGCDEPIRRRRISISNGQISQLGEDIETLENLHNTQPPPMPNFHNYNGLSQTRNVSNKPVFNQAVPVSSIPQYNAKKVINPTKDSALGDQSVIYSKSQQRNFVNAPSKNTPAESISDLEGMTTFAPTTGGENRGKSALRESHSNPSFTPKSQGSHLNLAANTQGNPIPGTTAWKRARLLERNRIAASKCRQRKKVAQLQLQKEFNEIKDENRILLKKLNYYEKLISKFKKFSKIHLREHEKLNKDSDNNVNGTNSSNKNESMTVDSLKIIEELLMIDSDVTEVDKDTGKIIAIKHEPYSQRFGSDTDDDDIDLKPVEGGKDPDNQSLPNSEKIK
- assay_protocol: PBM E-score (8-mer binding enrichment) (E-score (-0.5 to 0.5)); higher = stronger / more preferred TF binding
- conditions: protein concentration: 200 nM; construct: GST-DNA-binding domain
In all, about 33,000 sequences were measured (“E-score (-0.5 to 0.5)”: median about -0.016, highest 2% from about 0.31 on). Many of the other results were omitted from the sample, so the highest values are more common in it than they were.
Just the number, please.

stdin: Report PBM E-score for GCTAACAC please.
stdout: -0.00396

----------
- target_desc: Cst6 (UniProt P40535)
- assay_protocol: PBM E-score (8-mer binding enrichment) (E-score (-0.5 to 0.5)); higher = stronger / more preferred TF binding
- conditions: protein concentration: 200 nM; construct: GST-DNA-binding domain
In all, about 33,000 sequences were measured (“E-score (-0.5 to 0.5)”: median about -0.016, highest 2% from about 0.31 on). The list comes from a sample in which the highest values are over-represented; it also holds close analogues and randomly drawn sequences.
measured_attribute: PBM E-score
Just the number, please.

ACCGTTCG: 0.0621
ACGGCGCT: 0.251
TCGGCGCA: 0.071
GCGGCGCC: 0.376
CTTCCCAC: 0.0313

stdin: Report PBM E-score for ACTACACA please.
stdout: 0.17

stdin: Report PBM E-score for AGTCCCTG please.
stdout: -0.223

stdin: Report PBM E-score for ACGGCGCA please.
stdout: 0.349

stdin: Report PBM E-score for CCAAGATC please.
stdout: -0.12

stdin: Report PBM E-score for ATCCCAGG please.
stdout: -0.234

stdin: Report PBM E-score for CAGTTTTA please.
stdout: 0.00126

stdin: Report PBM E-score for GCGGAAAA please.
stdout: 0.17
